molecular target: KCNQ 2/3 channels (Homo sapiens, UniProt O43525+O43526); assay: KCNQ 2/3 channel activation, thallium flux FLIPR assay (BTC-AM dye); settings: HEK293 cells stably expressing human KCNQ2 and KCNQ3 subunits; thallium-induced fluorescence, 4 min compound incubation
As shown below, each of these molecules has a reported log10 of EC50 value.
In plain terms, each number is the log10 of measured EC50 in nM.

The examples below pair each entry with its known result.
MOLECULE: O=C(Cc1cc(F)cc(F)c1)Nn1nc(S(=O)(=O)Cc2ccccc2)c2ccccc2c1=O
log10 of EC50: 2.96
--
MOLECULE: COc1cccc(CC(=O)Nn2nc(S(=O)(=O)c3ccccc3)c3ccccc3c2=O)c1
log10 of EC50: 2.97
--
MOLECULE: O=C(Cc1cc(F)cc(F)c1)Nn1nc([S+]([O-])c2ccccc2)c2ccccc2c1=O (stereo not drawn)
log10 of EC50: 3.04
--
MOLECULE: O=C(C[C@@H]1C[C@@H]2C=C[C@H]1C2)Nn1nc(-c2cccs2)c2ccccc2c1=O
log10 of EC50: 2.12
--
MOLECULE: CC(C)(C)Sc1nn(NC(=O)Cc2ccc(Cl)cc2)c(=O)c2ccccc12
log10 of EC50: 2.13

Consider the record given below.
Entry O=C(Cc1cc(F)cc(F)c1)Nn1nc(-c2cccs2)c2ccccc2c1=O : reported log10 of EC50 = ? 2.21

----------
target: KCNQ 2/3 channels (Homo sapiens, UniProt O43525+O43526); experiment: KCNQ 2/3 channel activation, thallium flux FLIPR assay (BTC-AM dye); details: HEK293 cells stably expressing human KCNQ2 and KCNQ3 subunits; thallium-induced fluorescence, 4 min compound incubation
So basically: is EC50 under 1000 nM? Then True. Not under? Then False.

Solved cases below.
MOLECULE: O=C(Cc1cccc(C(F)(F)F)c1)Nn1nc(N2CCOCC2)c2ccccc2c1=O
TESTED_SYSTEM: KCNQ 2/3 channels (Homo sapiens, UniProt O43525+O43526)
LABEL_CLASS: False
--
MOLECULE: Cc1ccc(CC(=O)Nn2nc(N3CCOCC3)c3ccccc3c2=O)cc1
TESTED_SYSTEM: KCNQ 2/3 channels (Homo sapiens, UniProt O43525+O43526)
LABEL_CLASS: False
--
MOLECULE: CC(C)(CC(=O)Nn1nc(S(=O)(=O)c2ccc(C#N)cc2)c2ccccc2c1=O)c1ccccc1
TESTED_SYSTEM: KCNQ 2/3 channels (Homo sapiens, UniProt O43525+O43526)
LABEL_CLASS: True
--
MOLECULE: Cc1cc(-c2nn(NC(=O)CC3CC4CCC3C4)c(=O)c3ccccc23)ccn1 (racemic)
TESTED_SYSTEM: KCNQ 2/3 channels (Homo sapiens, UniProt O43525+O43526)
LABEL_CLASS: False
--
MOLECULE: O=C(CC1CC2CCC1C2)Nn1nc(-c2cccs2)c2ccccc2c1=O (racemic)
TESTED_SYSTEM: KCNQ 2/3 channels (Homo sapiens, UniProt O43525+O43526)
LABEL_CLASS: True
--
MOLECULE: O=C(CC12CC3CC(CC1C3)C2)Nn1nc(S(=O)(=O)c2ccccc2)c2ccccc2c1=O
TESTED_SYSTEM: KCNQ 2/3 channels (Homo sapiens, UniProt O43525+O43526)
LABEL_CLASS: True

Field: below-cutoff. Rule: recorded EC50 strictly less than 1000 nM. Subject: O=C(CC1CC2CCC1C2)Nn1nc(Sc2ccccc2)c2ccccc2c1=O (racemic) True

Field: below-cutoff. Rule: recorded EC50 strictly less than 1000 nM. Subject: O=C(Cc1cc(F)cc(F)c1)Nn1nc(-c2ccccn2)c2ccccc2c1=O False

Field: below-cutoff. Rule: recorded EC50 strictly less than 1000 nM. Subject: O=C(Cc1ccc(Cl)cc1)Nn1nc(N2CCCCC2)c2ccccc2c1=O True

Field: below-cutoff. Rule: recorded EC50 strictly less than 1000 nM. Subject: CN(Cc1ccccc1)c1nn(NC(=O)CC(C)(C)c2ccccc2)c(=O)c2ccccc12 True
